Data origin, for the record: ChEMBL document CHEMBL4725391

test: Clearance in C57BL/6 mouse at 1 mg/kg, iv administered as bolus dose measured after 0.083 to 24 hrs by LC-MS/MS analysis; type: ADME, organism-based; conditions: in vivo, time 0.083-24 hrs
clearance values by entry

# cpd-smiles, clearance (mL/min/kg)
rows = [
    ("O=C(O)Cc1cc(F)ccc1NC(=O)c1cccc(-c2cc(O[C@@H]3CCCNC3)c(Cl)cc2F)c1", 8),
    ("O=C(O)Cc1ccccc1NC(=O)c1cccc(-c2ccc(Cl)c(O[C@@H]3CCCNC3)c2F)c1", 12),
    ("O=C(O)Cc1cc(F)ccc1NC(=O)c1cccc(-c2ccc(Cl)c(O[C@@H]3CCCNC3)c2F)c1", 1.2),
    ("O=C(O)Cc1ccccc1NC(=O)c1cccc(-c2ccc(Cl)c(O[C@@H]3CCCNC3)c2)c1F", 11),
    ("O=C(O)Cc1cc(F)ccc1NC(=O)c1cccc(-c2cc(O[C@@H]3CCCNC3)c(Cl)cc2F)c1F", 0.6),
    ("O=C(O)Cc1ccccc1NC(=O)c1cccc(-c2ccc(Cl)cc2)c1F", 10),
]
